Recorded values, source PubChem BioAssay (NCI).

System: SK-MEL-5 melanoma
Test: NCI-60 one-dose screen, 48 h (100 = growth as untreated, 0 = no growth, -100 = all killed)
Details: 10 µM
This is part of a sample that, as a whole, favours compounds with a hit. Of some 83,000 tested, about 20% had one in any assay. Calls of active or inactive are those of the source. Rule for the calls: active = growth percent below 10; inactive = the rest.
The following molecules are listed with their measured growth values.
quantity name: growth

# molecule, tgt, result
rows = [
    ("N#C/C(=C\\c1ccc(N(c2ccccc2)c2ccccc2)cc1)C(N)=O", "SK-MEL-5 melanoma", "31.2% (inactive)"),
    ("COc1cc2c(c(OC)c1OC)C(=O)CC(c1cccc(NC(=O)c3cccc(N)c3)c1)O2 (centres undefined)", "SK-MEL-5 melanoma", "61.9% (inactive)"),
    ("N#Cc1ccc(-c2nn(-c3ccc(C(=O)O)cc3)cc2CNc2ccc(Oc3ccccc3)cc2)cc1", "SK-MEL-5 melanoma", "70% (inactive)"),
    ("Cc1cc(C(F)(F)F)ccc1C(=O)Nc1sc2c(c1C#N)CCC(=O)C2", "SK-MEL-5 melanoma", "-98.9% (active)"),
    ("O=C(c1ccc(O)cc1)C1[C@H](c2ccc(Br)cc2)[C@@H](c2ccccc2)NC12C(=O)Nc1ccccc12 (some centres undefined)", "SK-MEL-5 melanoma", "30.1% (inactive)"),
    ("COc1ccsc1/C=N/NC(=O)c1[nH]c2ccc(Br)cc2c1-c1ccccc1", "SK-MEL-5 melanoma", "-47.3% (active)"),
    ("Cc1cccc2cc(-c3cc(-c4ccccc4)nc(=S)[nH]3)c(Cl)nc12", "SK-MEL-5 melanoma", "23.6% (inactive)"),
    ("Cc1cc2c(c(O)c1Br)-c1ncoc1C(=O)[C@]1(C)CC[C@H](C(C)C)[C@H]21", "SK-MEL-5 melanoma", "-29.9% (active)"),
    ("Cc1ccc(/C=C(\\C#N)n2nnc3c(F)cccc32)cc1", "SK-MEL-5 melanoma", "-23.5% (active)"),
]
